target: full-length human PD1 on cells (human, UniProt Q15116 25-288); assay: cell-based or functional assay
Sequence (Q15116 25-288 limits assumed): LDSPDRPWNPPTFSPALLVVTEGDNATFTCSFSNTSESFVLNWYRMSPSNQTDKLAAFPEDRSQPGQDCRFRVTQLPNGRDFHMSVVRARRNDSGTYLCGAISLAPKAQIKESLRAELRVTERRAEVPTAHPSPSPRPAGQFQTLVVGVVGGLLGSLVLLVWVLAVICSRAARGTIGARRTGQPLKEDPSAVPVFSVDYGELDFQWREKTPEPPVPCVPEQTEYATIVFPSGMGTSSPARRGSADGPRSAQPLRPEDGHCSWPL
Endpoint Name: Percentage of IFN gamma secretion in MLR against rec hu IL-2 (=100%), dilution 1:1200
Answers are plain numbers, in %.

Could you share which Percentage of IFN gamma secretion in MLR against rec hu IL-2 (=100%), dilution 1:1200 value was measured for PD1-0069 (antibody, V domains shown) VH: QVQLQQSGPELVRPGVSVKISCKGSGYTFTDYAMHWVKQSHARTLEWIGVISTYSGDTNYNQKFKDKATMTVDKSSSTAYLELARMTSEDSAIYYCARLGITTGFAYWGQGTLVTVSA VL: DIVLTQSPASLAVSLGQRATISCRASKGVSTSSYSFMHWYQQKPRQPPKLLIKYASYLESGVPARFSGSGSGTDFTLNIHPVEEEDAATYYCHHSREFPWTFGGGTKLEIK ? 55
